Reported MIC values for a set of compounds
tested on: Mycobacterium avium; experiment: MIC, micro broth dilution with resazurin readout; format: cell-based; conditions: MH Culture Medium, clinically isolated strain Avium (S597), read-out: Minimum Inhibitory Concentration (MIC)
Property Name: MIC (µg/mL)

Cc1ncc([N+](=O)[O-])n1CCO [Metronidazole]; 8
CO[C@H]1/C=C/O[C@@]2(C)Oc3c(C)c(O)c4c(O)c(c(/C=N/N5CCN(C)CC5)c(O)c4c3C2=O)NC(=O)/C(C)=C\C=C\[C@H](C)[C@H](O)[C@@H](C)[C@@H](O)[C@@H](C)[C@H](OC(C)=O)[C@@H]1C [Rifampicin]; 8
COc1c(N2C[C@@H]3CCCN[C@@H]3C2)c(F)cc2c(=O)c(C(=O)O)cn(C3CC3)c12 [Moxifloxacin]; 2
CC[C@H]1OC(=O)[C@H](C)[C@@H](O[C@H]2C[C@@](C)(OC)[C@@H](O)[C@H](C)O2)[C@H](C)[C@@H](O[C@@H]2O[C@H](C)C[C@H](N(C)C)[C@H]2O)[C@](C)(OC)C[C@@H](C)C(=O)[C@H](C)[C@@H](O)[C@]1(C)O [Clarithromycin]; 1
CO[C@H]1/C=C/O[C@@]2(C)Oc3c(C)c(O)c4c(c3C2=O)C2=NC3(CCN(CC(C)C)CC3)NC2=C(NC(=O)/C(C)=C\C=C\[C@H](C)[C@H](O)[C@@H](C)[C@@H](O)[C@@H](C)[C@H](OC(C)=O)[C@@H]1C)C4=O [Rifabutin]; 0.0625
CO[C@H]1/C=C/O[C@@]2(C)Oc3c(C)c(O)c4c(c3C2=O)C2=NC3(CCN(CCn5c([N+](=O)[O-])cnc5C)CC3)NC2=C(NC(=O)/C(C)=C\C=C\[C@H](C)[C@H](O)[C@@H](C)[C@@H](O)[C@@H](C)[C@H](OC(C)=O)[C@@H]1C)C4=O [Compound I]; 0.125

====

system: Mycobacterium fortuitum; experiment: MIC, micro broth dilution with resazurin readout; type: cell-based; settings: Mycolicibacterium fortuitum, MH Culture Medium; Fortuitum (standard strain); read-out: Minimum Inhibitory Concentration (MIC)
Property Name: MIC (µg/mL)

CO[C@H]1/C=C/O[C@@]2(C)Oc3c(C)c(O)c4c(c3C2=O)C2=NC3(CCN(CCn5c([N+](=O)[O-])cnc5C)CC3)NC2=C(NC(=O)/C(C)=C\C=C\[C@H](C)[C@H](O)[C@@H](C)[C@@H](O)[C@@H](C)[C@H](OC(C)=O)[C@@H]1C)C4=O; 16

====

system: Mycobacterium intracellulare; test: MIC, micro broth dilution with resazurin readout; assay type: cell-based; details: MH Culture Medium, clinically isolated strain Intracellulare (S269), read-out: Minimum Inhibitory Concentration (MIC)
Property Name: MIC (µg/mL)

Cc1ncc([N+](=O)[O-])n1CCO; 16
COc1c(N2C[C@@H]3CCCN[C@@H]3C2)c(F)cc2c(=O)c(C(=O)O)cn(C3CC3)c12; 2
CO[C@H]1/C=C/O[C@@]2(C)Oc3c(C)c(O)c4c(O)c(c(/C=N/N5CCN(C)CC5)c(O)c4c3C2=O)NC(=O)/C(C)=C\C=C\[C@H](C)[C@H](O)[C@@H](C)[C@@H](O)[C@@H](C)[C@H](OC(C)=O)[C@@H]1C; 4
CC[C@H]1OC(=O)[C@H](C)[C@@H](O[C@H]2C[C@@](C)(OC)[C@@H](O)[C@H](C)O2)[C@H](C)[C@@H](O[C@@H]2O[C@H](C)C[C@H](N(C)C)[C@H]2O)[C@](C)(OC)C[C@@H](C)C(=O)[C@H](C)[C@@H](O)[C@]1(C)O; 1
CO[C@H]1/C=C/O[C@@]2(C)Oc3c(C)c(O)c4c(c3C2=O)C2=NC3(CCN(CCn5c([N+](=O)[O-])cnc5C)CC3)NC2=C(NC(=O)/C(C)=C\C=C\[C@H](C)[C@H](O)[C@@H](C)[C@@H](O)[C@@H](C)[C@H](OC(C)=O)[C@@H]1C)C4=O; 0.125
CO[C@H]1/C=C/O[C@@]2(C)Oc3c(C)c(O)c4c(c3C2=O)C2=NC3(CCN(CC(C)C)CC3)NC2=C(NC(=O)/C(C)=C\C=C\[C@H](C)[C@H](O)[C@@H](C)[C@@H](O)[C@@H](C)[C@H](OC(C)=O)[C@@H]1C)C4=O; 0.0625

====

system: Mycobacterium intracellulare; test: MIC, micro broth dilution with resazurin readout; type: cell-based; details: MH Culture Medium, clinically isolated strain Intracellulare (S298), read-out: Minimum Inhibitory Concentration (MIC)
Reported MIC values for a set of compounds
Property Name: MIC

CC[C@H]1OC(=O)[C@H](C)[C@@H](O[C@H]2C[C@@](C)(OC)[C@@H](O)[C@H](C)O2)[C@H](C)[C@@H](O[C@@H]2O[C@H](C)C[C@H](N(C)C)[C@H]2O)[C@](C)(OC)C[C@@H](C)C(=O)[C@H](C)[C@@H](O)[C@]1(C)O; 2 µg/mL
CO[C@H]1/C=C/O[C@@]2(C)Oc3c(C)c(O)c4c(O)c(c(/C=N/N5CCN(C)CC5)c(O)c4c3C2=O)NC(=O)/C(C)=C\C=C\[C@H](C)[C@H](O)[C@@H](C)[C@@H](O)[C@@H](C)[C@H](OC(C)=O)[C@@H]1C; 4 µg/mL

====

tested on: Mycobacterium kansasii; test: MBC, plating of MIC wells and CFU count; assay type: cell-based; details: MH Broth, read-out: Minimum Bactericidal Concentration (MBC)
Property Name: MBC

CC[C@H]1OC(=O)[C@H](C)[C@@H](O[C@H]2C[C@@](C)(OC)[C@@H](O)[C@H](C)O2)[C@H](C)[C@@H](O[C@@H]2O[C@H](C)C[C@H](N(C)C)[C@H]2O)[C@](C)(OC)C[C@@H](C)C(=O)[C@H](C)[C@@H](O)[C@]1(C)O; > 64 µg/mL
CO[C@H]1/C=C/O[C@@]2(C)Oc3c(C)c(O)c4c(c3C2=O)C2=NC3(CCN(CCn5c([N+](=O)[O-])cnc5C)CC3)NC2=C(NC(=O)/C(C)=C\C=C\[C@H](C)[C@H](O)[C@@H](C)[C@@H](O)[C@@H](C)[C@H](OC(C)=O)[C@@H]1C)C4=O; 2 µg/mL
NCC[C@H](O)C(=O)N[C@@H]1C[C@H](N)[C@@H](O[C@H]2O[C@H](CN)[C@@H](O)[C@H](O)[C@H]2O)[C@H](O)[C@H]1O[C@H]1O[C@H](CO)[C@@H](O)[C@H](N)[C@H]1O; > 64 µg/mL
CO[C@H]1/C=C/O[C@@]2(C)Oc3c(C)c(O)c4c(O)c(c(/C=N/N5CCN(C)CC5)c(O)c4c3C2=O)NC(=O)/C(C)=C\C=C\[C@H](C)[C@H](O)[C@@H](C)[C@@H](O)[C@@H](C)[C@H](OC(C)=O)[C@@H]1C; 4 µg/mL
Cc1ncc([N+](=O)[O-])n1CCO; > 64 µg/mL
O=C(O)c1cn(C2CC2)c2cc(N3CCNCC3)c(F)cc2c1=O; > 64 µg/mL

====

system: Mycobacterium intracellulare; experiment: MIC, micro broth dilution with resazurin readout; assay type: cell-based; settings: MH Culture Medium, clinically isolated strain Intracellulare (S298), read-out: Minimum Inhibitory Concentration (MIC)
Property Name: MIC (µg/mL)

CO[C@H]1/C=C/O[C@@]2(C)Oc3c(C)c(O)c4c(c3C2=O)C2=NC3(CCN(CCn5c([N+](=O)[O-])cnc5C)CC3)NC2=C(NC(=O)/C(C)=C\C=C\[C@H](C)[C@H](O)[C@@H](C)[C@@H](O)[C@@H](C)[C@H](OC(C)=O)[C@@H]1C)C4=O; 0.25
COc1c(N2C[C@@H]3CCCN[C@@H]3C2)c(F)cc2c(=O)c(C(=O)O)cn(C3CC3)c12; 2
CO[C@H]1/C=C/O[C@@]2(C)Oc3c(C)c(O)c4c(c3C2=O)C2=NC3(CCN(CC(C)C)CC3)NC2=C(NC(=O)/C(C)=C\C=C\[C@H](C)[C@H](O)[C@@H](C)[C@@H](O)[C@@H](C)[C@H](OC(C)=O)[C@@H]1C)C4=O; 0.5
Cc1ncc([N+](=O)[O-])n1CCO; 16

====

Reported MBC values for a set of compounds
tested on: Mycobacterium avium; assay: MBC, plating of MIC wells and CFU count; assay type: cell-based; settings: MH Broth, Mycobacterium avium Smooth, read-out: Minimum Bactericidal Concentration (MBC)
Property Name: MBC

NCC[C@H](O)C(=O)N[C@@H]1C[C@H](N)[C@@H](O[C@H]2O[C@H](CN)[C@@H](O)[C@H](O)[C@H]2O)[C@H](O)[C@H]1O[C@H]1O[C@H](CO)[C@@H](O)[C@H](N)[C@H]1O; > 64 µg/mL
CO[C@H]1/C=C/O[C@@]2(C)Oc3c(C)c(O)c4c(c3C2=O)C2=NC3(CCN(CCn5c([N+](=O)[O-])cnc5C)CC3)NC2=C(NC(=O)/C(C)=C\C=C\[C@H](C)[C@H](O)[C@@H](C)[C@@H](O)[C@@H](C)[C@H](OC(C)=O)[C@@H]1C)C4=O; 16 µg/mL
Cc1ncc([N+](=O)[O-])n1CCO; > 64 µg/mL
CC[C@H]1OC(=O)[C@H](C)[C@@H](O[C@H]2C[C@@](C)(OC)[C@@H](O)[C@H](C)O2)[C@H](C)[C@@H](O[C@@H]2O[C@H](C)C[C@H](N(C)C)[C@H]2O)[C@](C)(OC)C[C@@H](C)C(=O)[C@H](C)[C@@H](O)[C@]1(C)O; > 64 µg/mL
CO[C@H]1/C=C/O[C@@]2(C)Oc3c(C)c(O)c4c(O)c(c(/C=N/N5CCN(C)CC5)c(O)c4c3C2=O)NC(=O)/C(C)=C\C=C\[C@H](C)[C@H](O)[C@@H](C)[C@@H](O)[C@@H](C)[C@H](OC(C)=O)[C@@H]1C; 4 µg/mL
O=C(O)c1cn(C2CC2)c2cc(N3CCNCC3)c(F)cc2c1=O; > 64 µg/mL
